ASSAY NOTES: 384-well plate pilot, post-Golgi transport modulator project, inhibition of yeast transport mutant growth (AID 636)
RUN PARAMETERS: absorbance 615 nm, about 18 h
The source made the active and inactive calls. Rule as the data show it: active = inhibition above about 31%; inactive = the rest.
Entry note: the call must match one of true (active), false (inactive)

[ask] Any idea what this test logged for "CCOC(=O)c1[nH]c(C)c(C(=O)Nc2ccccc2C)c1C" ?
[reply] false

[ask] Please answer likewise for "CCn1c(SCC(=O)Nc2ccc3c(c2)OCO3)nnc1-c1cnccn1"
[reply] false

[ask] Please answer likewise for "O=C(O)CCN(CCC(=O)O)c1nnc(SCc2ccccc2)s1"
[reply] false

[ask] Please answer likewise for "O=C(CC(=O)c1cc(Cl)ccc1O)c1ccccc1"
[reply] true

[ask] Please answer likewise for O=C1c2ccccc2NC2CCCCCN12 (stereo not given)
[reply] false

[ask] Please answer likewise for "CC(C)NC(=O)c1ccccc1NC(=O)c1ccccc1N(C)S(C)(=O)=O"
[reply] false

[ask] Please answer likewise for "O=C(Nc1ccc(NC(=O)C2CC2)cn1)c1ccccc1Cl"
[reply] false

[ask] Please answer likewise for "Cc1ccc(C)c(N2CCN(Cc3nnnn3C3CCCCC3)CC2)c1"
[reply] false

[ask] Please answer likewise for COc1ccc(C2C=C(c3ccccc3)Nc3ncnn32)cc1 (stereo not given)
[reply] false

[ask] Please answer likewise for C/C(=C\c1ccco1)C1C(C#N)=C(N)OC2=C1C(=O)CC(C)(C)C2 (stereo not given)
[reply] false

[ask] Please answer likewise for "NNC(=O)c1ccncc1"
[reply] false

[ask] Please answer likewise for "CCCC(=O)Nc1ccccc1NC(=O)CN(C)S(=O)(=O)c1ccc(C)cc1"
[reply] false

[ask] Please answer likewise for "COc1ccc(Cc2nc3ccc(S(N)(=O)=O)cc3[nH]2)cc1OC"
[reply] false

[ask] Please answer likewise for CC(CCc1ccccc1)NCC(O)c1ccc(O)c(C(N)=O)c1 (stereo not given)
[reply] false

[ask] Please answer likewise for Cc1ccc2cc(C(c3nnnn3CC3CCCO3)N3CCc4ccccc4C3)c(=O)[nH]c2c1 (stereo not given)
[reply] false

[ask] Please answer likewise for "Cc1c(N(C)C)nc2ccccc2c1N"
[reply] false

[ask] Please answer likewise for CCn1c(C(=O)N2CCCC(C(=O)O)C2)cc2sccc21 (stereo not given)
[reply] false

[ask] Please answer likewise for "COC(=O)c1c(NC(=O)CCc2ccc(C)o2)sc(C)c1C"
[reply] false

[ask] Please answer likewise for "CCOC(=O)Cc1csc(NC(=O)CSc2nnc(C(C)C)n2CC)n1"
[reply] false

[ask] Please answer likewise for Clc1ccc(C2Nc3ccccc3-n3cccc32)cc1 (stereo not given)
[reply] false

[ask] Please answer likewise for "Nc1nc(-c2ccccc2)cc(C(F)(F)F)n1"
[reply] false

[ask] Please answer likewise for COCCn1nnnc1C(c1cc2ccc(OC)cc2[nH]c1=O)N1CCc2ccccc2C1 (stereo not given)
[reply] false

[ask] Please answer likewise for Cc1ccc(NC(=O)CC2C(=O)NC3CCCCC3N2C(=O)c2ccc(F)cc2)cc1C (stereo not given)
[reply] false

[ask] Please answer likewise for "Cc1nnc(SCCn2c(Br)nc3c2c(=O)n(C)c(=O)n3C)s1"
[reply] false

[ask] Please answer likewise for CC(=O)C1=C(C)NC(=O)NC1c1cccc(O)c1 (stereo not given)
[reply] false

[ask] Please answer likewise for "COC(=O)C1=CN(C)C=C(C(=O)OC)C1c1ccc(O)c(OC)c1"
[reply] false

[ask] Please answer likewise for O=C(CC(Cc1ccccc1)C(=O)O)NCCc1ccc2c(c1)OCO2 (stereo not given)
[reply] false

[ask] Please answer likewise for "CC(C)Oc1cccc(-c2cc(C(=O)N3CCN(S(C)(=O)=O)CC3)c3ccccc3n2)c1"
[reply] false

[ask] Please answer likewise for "NC(=O)N1c2ccccc2C=Cc2ccccc21"
[reply] false

[ask] Please answer likewise for "Cc1nc(N)[nH]c(=O)c1CCC(=O)OCC(C)C"
[reply] false

Source listed as PubChem BioAssay.
